Assay method text: AUC(0 to t) in Sprague-Dawley rat at 10 mg/kg, po
Type: ADME, organism-based
Set-up: dose 10 mg/kg
Assay setup: in vivo
Metric: AUC(0-t) (ng·h/mL)
Form entry: value (ng·h/mL) — number only.

Task item: Reported AUC(0-t), compound CCCC(N)C(=O)NCCc1ccc(-c2ccc(Cl)c(Cl)c2)cc1.Cl (racemic) : ____
Reply: 527

* * *

System: Cryptococcus neoformans
Assay method text: Antifungal activity against Cryptococcus neoformans H99 assessed as reduction in fungal growth incubated for 72 hrs by CLSI based broth microdilution method
Type: functional
Metric: MIC (µg/mL)
Number only, in µg/mL; omit the unit.

Nc1ncccc1C(=O)NCCc1ccc(-c2ccc(Cl)c(Cl)c2)cc1
128

Task item: Need MIC, item CCC(N)C(=O)NCCc1ccc(-c2ccc(C(F)(F)F)cc2)cc1.Cl (racemic)
Reply: 16

Task item: Would you kindly share the measured MIC for CCCC(N)C(=O)NCCc1ccc(-c2ccc(F)c(F)c2)cc1.Cl (racemic) ?
Reply: 32

Task item: Which MIC value is on record for `CC(C)(NCCc1ccc(OCc2cccc(F)c2)cc1)C(N)=O.CS(=O)(=O)O` ?
Reply: 128

Task item: Using the record for CCCCC(N)C(=O)NCCc1ccc(-c2ccc(F)c(F)c2)cc1.Cl (racemic) , report its MIC.
Reply: 16

Task item: Data request, read-out MIC, for CC(NCCc1ccc(OCc2cccc(C(F)(F)F)c2)cc1)C(N)=O.CS(=O)(=O)O (racemic)
Reply: 32

Task item: I would be grateful if you could share the reported MIC for CCCC(NC)C(=O)NCCc1ccc(OCc2ccc(C(F)(F)F)cc2)cc1.Cl (racemic) .
Reply: 16

# credit: ChEMBL document CHEMBL5030558
